B1: INTS4 (parent)
chain: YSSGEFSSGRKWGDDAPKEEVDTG

# Variants of: B1
# assay details: protein stability index of a GFP-peptide fusion (GPS, HEK-293T) (PSI 1-6); higher = more stable;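 note: lentivirally expressed fusions sorted by FACS into six bins by GFP to DsRed ratio, PSI derived from sequencing read proportions per bin multiplied by bin number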
# details: c terminus: a fixed tail appended

# mutation, protein stability index
measured = [
    ("R10L", 2),
    ("S8H", 2.25),
    ("E5S", 3.07),
    ("S7N", 3.3),
    ("F6S", 5.16),
    ("D15Q", 2.12),
    ("D15H", 1.81),
    ("K18Q", 2.92),
    ("E20G", 2.17),
    ("A16L", 2.48),
    ("K18R", 3.13),
]
